Reference source for all entries: patent US20230125550A1

targetSystem: T1, recombinant human CD123-Fc (human, UniProt P26951 19-305)
T1 construct: not shown: Fc part of CD123-Fc
T1 sequence: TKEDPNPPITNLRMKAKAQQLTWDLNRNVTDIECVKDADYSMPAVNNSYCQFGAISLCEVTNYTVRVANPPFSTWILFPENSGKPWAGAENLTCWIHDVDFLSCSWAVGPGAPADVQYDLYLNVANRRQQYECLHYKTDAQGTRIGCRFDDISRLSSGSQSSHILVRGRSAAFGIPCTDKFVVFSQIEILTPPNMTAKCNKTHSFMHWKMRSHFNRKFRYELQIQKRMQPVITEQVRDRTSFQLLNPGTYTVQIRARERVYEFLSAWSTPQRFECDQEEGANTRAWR
methodSummary: phage ELISA, captured CD123-Fc
recordedEndpoint: ELISA_avg (ratio A450 target/IgG1-Fc)
Kindly provide the numeric value in ratio A450 target/IgG1-Fc only, without the unit symbol.

[
  {
    "binder": "SEQ ID NO: 550 (designed binder, D domain, on phage) MGSWYEFDERLWAIWERLDALGGSEAELAHFEWVIADFENDLQWYKGKGNPEVEALEFEAEAIVTELHAYRHN",
    "scaleUnit": "ratio A450 target/IgG1-Fc",
    "number": 3.6
  },
  {
    "binder": "SEQ ID NO: 541 (designed binder, D domain, on phage) MGSWFEFDERLDAIGSRLTALGGSEAELASFEFYIADFEEWLQQYKGKGNPEVEALEWEAFAIDEELGAYRHN",
    "scaleUnit": "ratio A450 target/IgG1-Fc",
    "number": 3.8
  }
]

// below: ELISA_avg requested for another binder
Query string: Fill in: ELISA_avg of SEQ ID NO: 555 (designed binder, D domain, on phage) MGSWEEFDTRLLAIFGRLGALGGSEAELALFEMLIAKFEDDLQNYKGKGNPEVEALSEEAFAIDHELGAYRHN is ___
Result string: 6.7
